- method summary: ATG_PBREM_CIS: Attagene CIS-FACTORIAL HepG2 Assay for human Phenobarbital-responsive Enhancer Module (PBREM) (AID 2282955)
- test settings: HepG2 PBREM cis-reporter, Attagene multiplexed transcription; actives raise or lower the signal
Active and inactive are the calls of the source. The calls were made as follows: active = hit-call score of the fitted dose curve at least 0.9, where 1 is the maximum; inactive = score below 0.9.
Possible outcomes: class 1 (active), class 0 (inactive)

Cn1cc(-c2ccccc2)c(=O)c(-c2cccc(C(F)(F)F)c2)c1: class 0
CCOc1cccc(C2(N3CCN(c4ccccc4)CC3)CCC(C)CC2)c1 (stereo unspecified): class 0
CCC12COCN1COC2: class 0
C[C@]12C=CC3=C4CCC(=O)C=C4CC[C@H]3[C@@H]1CC[C@@H]2O: class 0
CC(C)(O)c1cnn2c(-c3ccc(F)c(-c4c(F)cccc4C#N)c3)cnc2n1: class 1
CS(=O)(=O)NC(=O)c1cc(Oc2ccc(C(F)(F)F)cc2Cl)ccc1[N+](=O)[O-]: class 0
CNC(=O)Oc1cccc2c1OC(C)(C)C2: class 0
CC(C)N(Cc1ccccc1)C(=O)C(C)(C)C: class 0
OCCCl: class 0
CCCCCOC(=O)c1ccccc1C(=O)OCCCCC: class 0
COc1cc(C=O)cc2c1[C@H](COC(N)=O)[C@]1(OC(C)=O)ON2C[C@H]2[C@@H]1N2C(C)=O: class 0
O=C1CCCO1: class 0
CCCCC(CC)COC(=O)c1ccc(C(=O)OCC(CC)CCCC)c(C(=O)OCC(CC)CCCC)c1 (stereo unspecified): class 0
[As]#[In]: class 0
O=C(O)C1C2CCC(O2)C1C(=O)O (stereo unspecified): class 1
C1=Cc2cccc3cccc1c23: class 0

###

- target desc: Cytochrome P450 3A4 (Homo sapiens) (UniProt P08684)
- Sequence (P08684 whole entry, looked up): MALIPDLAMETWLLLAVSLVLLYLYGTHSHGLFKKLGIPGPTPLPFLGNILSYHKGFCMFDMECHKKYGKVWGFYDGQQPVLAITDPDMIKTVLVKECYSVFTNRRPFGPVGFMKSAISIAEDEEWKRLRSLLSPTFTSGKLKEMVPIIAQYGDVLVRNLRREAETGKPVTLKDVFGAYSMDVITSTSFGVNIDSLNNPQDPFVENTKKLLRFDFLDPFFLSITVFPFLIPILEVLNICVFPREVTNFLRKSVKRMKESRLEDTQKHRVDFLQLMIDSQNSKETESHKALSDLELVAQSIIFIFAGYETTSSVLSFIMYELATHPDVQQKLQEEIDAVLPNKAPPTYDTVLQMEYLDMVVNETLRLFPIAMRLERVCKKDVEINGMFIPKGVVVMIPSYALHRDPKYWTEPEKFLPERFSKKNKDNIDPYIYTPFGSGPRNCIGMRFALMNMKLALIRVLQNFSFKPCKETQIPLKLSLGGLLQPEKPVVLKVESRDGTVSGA
- method summary: NVS_ADME_hCYP3A4: NovaScreen (NVS) CYP450-related Enzyme Activity (ADME) Assay for human CYP3A4 (AID 2283110)
- Protocol: NVS_ADME_hCYP3A4 is a biochemical, single-readout assay that uses extracted gene-proteins from insect cells in a cell-free assay. Measurements were taken 0.33 hour after chemical dosing in a 96-well plate.NVS_ADME_hCYP3A4 is one of one assay component(s) measured or calculated from the NVS_ADME_hCYP3A4 assay. […] This assay endpoint, NVS_ADME_hCYP3A4, was analyzed in the positive analysis fitting direction relative to Acetonitrile as the negative control and baseline of activity. […]
Inconclusive results are not listed. Active and inactive are the calls of the source. Rule for the calls: active = hit-call score of the fitted dose curve at least 0.9, where 1 is the maximum; inconclusive = response in the unintended direction; inactive = score below 0.9.
Possible outcomes: Y = active, N = inactive

O=C(N[C@H](c1ccccc1)[C@@H]1CN2CCC1CC2)c1c(Cl)ccc(C(F)(F)F)c1Cl: N
O=[N+]([O-])C(Br)(CO)CO: N
CC(C)(C)C(O)(CCc1ccc(Cl)cc1)Cn1cncn1 (configuration not stated): Y
O=C(Nc1ccccc1)c1ccccc1I: N
OCCOCCO: N
CCOC(=O)[C@]1(c2ccccc2)Oc2ccccc2[C@@H]1N: Y
[Cl-].[Cl-].[Hg+2]: Y

###

- Read-out: Macrophage colony-stimulating factor (MCSF), CSF1 (gene 1435)
- method summary: BSK_hDFCGF_MCSF: BioMAP Diversity Plus: hDFCGF Assay for Macrophage colony-stimulating factor (MCSF) Biomarker Activity (AID 2283060)
- test settings: primary human foreskin fibroblasts; actives raise or lower the signal
The source made the active and inactive calls. How the source made its calls: active means hit-call score of the fitted dose curve at least 0.9, where 1 is the maximum; inactive means score below 0.9.
Possible outcomes: active, inactive

CCC12COCN1COC2: inactive
CCC[CH2][Sn]([Cl])([CH2]CCC)[CH2]CCC: active
CN(C)c1ccccc1: inactive
Cc1cc(N=Nc2ccccc2C)ccc1N: active
CCCCCOC(=O)c1ccccc1C(=O)OCCCCC: active
CC(C)(O)c1cnn2c(-c3ccc(F)c(-c4c(F)cccc4C#N)c3)cnc2n1: inactive
Nc1ccc(N=Nc2ccccc2)cc1: inactive
Clc1ccccc1Cl: inactive
COC(=O)Nc1nc2ccccc2[nH]1: inactive
CS(=O)(=O)NC(=O)c1cc(Oc2ccc(C(F)(F)F)cc2Cl)ccc1[N+](=O)[O-]: inactive
CCCCCCCCOC(=O)c1ccc(C(=O)OCCCCCCCC)c(C(=O)OCCCCCCCC)c1: inactive
Nc1ccc(Oc2ccc(N)cc2)cc1: inactive
OCCOCCO: inactive
ClC1=C(Cl)C2(Cl)C3C(Cl)C=CC3C1(Cl)C2(Cl)Cl (stereo unspecified): active
N#CC(Br)Br: inactive
Oc1ccccc1Cl: inactive
CC(C)N(Cc1ccccc1)C(=O)C(C)(C)C: inactive
ClC1=C(Cl)[C@]2(Cl)[C@H]3[C@H]([C@@H]4C=C[C@H]3C4)[C@@]1(Cl)C2(Cl)Cl: active
CO[C@@H]1[C@H](OC(=O)NC(=O)CCl)CC[C@]2(CO2)[C@H]1[C@@]1(C)O[C@@H]1CC=C(C)C: active
Brc1ccc(Oc2ccccc2)cc1: inactive
CN(C)C(=O)Nc1ccc(Cl)cc1: inactive
[Cl-].[Cl-].[Hg+2]: active
Nc1cc(Cl)cc(C(=O)O)c1Cl: inactive
Clc1ccc(Cl)c(Cl)c1: inactive
C=CCc1ccc2c(c1)OCO2: inactive
c1ccc2c(c1)oc1ccccc12: inactive
OCCCl: inactive
CCCCC(CC)COC(=O)c1ccc(C(=O)OCC(CC)CCCC)c(C(=O)OCC(CC)CCCC)c1 (stereo unspecified): inactive
C1=Cc2cccc3cccc1c23: inactive
Cc1cccc(N)c1N: active
O=C(Oc1ccc(Br)cc1)N1CCN2CCC1CC2: inactive
N#CC(Br)(Br)C(N)=O: inactive
CC(C)(OOC(C)(C)c1ccccc1)c1ccccc1: inactive
CCCCCCCCCCCCCN1CC(C)OC(C)C1 (stereo unspecified): inactive
CC(C)(C)OOC(C)(C)CCC(C)(C)OOC(C)(C)C: inactive
COP(=S)(OC)SCN1C(=O)c2ccccc2C1=O: inactive
CCN(CC)N=O: inactive
CNC(=O)Oc1cccc2c1OC(C)(C)C2: inactive
c1ccc(C2CO2)cc1 (stereo unspecified): inactive
CCOc1cccc(C2(N3CCN(c4ccccc4)CC3)CCC(C)CC2)c1 (stereo unspecified): inactive
CN(C)[C@@H]1C(=O)C(C(N)=O)=C(O)[C@@]2(O)C(=O)C3=C(O)c4c(O)cccc4[C@@](C)(O)[C@H]3C[C@@H]12: inactive
OCCCBr: inactive
c1ccc(NNc2ccccc2)cc1: inactive
[As]#[In]: inactive
Cc1ccc(N)c(N)c1: inactive
Nc1ccc(Cl)cc1N: active
CN(C)c1ccc(C(=O)c2ccc(N(C)C)cc2)cc1: inactive
Clc1ccc(C(c2ccc(Cl)cc2)C(Cl)(Cl)Cl)cc1: active
COc1cc(C=O)cc2c1[C@H](COC(N)=O)[C@]1(OC(C)=O)ON2C[C@H]2[C@@H]1N2C(C)=O: active
O=C(Nc1ccccc1)c1ccccc1I: inactive
CCCSC(=O)N(CCC)CCC: inactive

###

- method summary: TOX21_p53_BLA_p3_viability: Viability Assessment in the Tox21 HCT-116 p53 Agonism Beta-lactamase Assay, Phase 3 (AID 2283593);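 also: cells exposed to compound for 16 h before reading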
Results filed as inconclusive are left out. Active and inactive are the calls of the source. How the source made its calls: active means hit-call score of the fitted dose curve at least 0.9, where 1 is the maximum; inconclusive means response in the unintended direction; inactive means score below 0.9.
assay metric: outcome

Nc1cc(Cl)cc(C(=O)O)c1Cl: inactive
Cc1ccc(N=C=O)cc1N=C=O: inactive
N#CC(Br)(Br)C(N)=O: inactive
CS(=O)(=O)NC(=O)c1cc(Oc2ccc(C(F)(F)F)cc2Cl)ccc1[N+](=O)[O-]: inactive
Brc1ccc(Oc2ccccc2)cc1: inactive
Oc1ccc2ccc3cccc4ccc1c2c34: inactive
c1ccc(C2CO2)cc1 (stereo not given): inactive
C1=Cc2cccc3cccc1c23: inactive
Cc1ccc(N)c(N)c1: inactive
O=Cc1ccco1: inactive
CC(C)(OOC(C)(C)c1ccccc1)c1ccccc1: inactive
O=[N+]([O-])c1ccc(Oc2ccc(Cl)cc2Cl)cc1: inactive
COP(=S)(OC)SCN1C(=O)c2ccccc2C1=O: inactive
Clc1ccc(Cl)c(Cl)c1: inactive
C=CCc1ccc2c(c1)OCO2: inactive

###

- method summary: APR_HepG2_P-H2AX_72hr: Apredica 72-hour HepG2 Assay for H2AX Phosphorylation (AID 2282916);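 also: phospho-histone H2A.x immunostain intensity per cell marking DNA damage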
- test settings: imaging, actives raise or lower the signal
The source made the active and inactive calls. How the source made its calls: active means hit-call score of the fitted dose curve at least 0.9, where 1 is the maximum; inactive means score below 0.9.
Possible outcomes: Y for active, N for inactive

O=C(Oc1ccc(Br)cc1)N1CCN2CCC1CC2: Y
CC(C)(OOC(C)(C)c1ccccc1)c1ccccc1: N
Cc1ccc([N+](=O)[O-])cc1: N
COc1cc(C=O)cc2c1[C@H](COC(N)=O)[C@]1(OC(C)=O)ON2C[C@H]2[C@@H]1N2C(C)=O: N
CNC(=O)Oc1cccc2c1OC(C)(C)C2: N
ClCCOCCCl: N
OCCCBr: N

###

- Read-out: JUN Transcription Factor, JUN (gene 3725)
- method summary: LTEA_HepaRG_JUN: Life Technologies and Expression Analysis (LTEA) Assay for JUN Transcription Factor using HepaRG (AID 2283513)
- test settings: mRNA level, 48 h; actives raise or lower the signal
Activity calls are given as the source filed them. The calls were made as follows: active = hit-call score of the fitted dose curve at least 0.9, where 1 is the maximum; inactive = score below 0.9.
Possible outcomes: active, inactive

Cc1ccc([N+](=O)[O-])cc1: inactive
CS(=O)(=O)NC(=O)c1cc(Oc2ccc(C(F)(F)F)cc2Cl)ccc1[N+](=O)[O-]: inactive
O=[N+]([O-])c1ccc(Oc2ccc(Cl)cc2Cl)cc1: inactive
CCCCCCCCCCCCCN1CC(C)OC(C)C1 (stereo not drawn): inactive
CCC(C)c1ccc(O)cc1 (stereo not drawn): inactive
CC(C)(C)C(O)(CCc1ccc(Cl)cc1)Cn1cncn1 (stereo not drawn): inactive
CCCSC(=O)N(CCC)CCC: inactive
Clc1ccccc1Cl: inactive
Nc1ccc(Cl)cc1N: inactive
CCN(CC)N=O: inactive
CNC(=O)Oc1cccc2c1OC(C)(C)C2: inactive
C[C@]12C=CC3=C4CCC(=O)C=C4CC[C@H]3[C@@H]1CC[C@@H]2O: inactive
CC(C)(O)c1cnn2c(-c3ccc(F)c(-c4c(F)cccc4C#N)c3)cnc2n1: inactive
CCNS(=O)(=O)C(F)(F)C(F)(F)C(F)(F)C(F)(F)C(F)(F)C(F)(F)C(F)(F)C(F)(F)F: inactive
COC(=O)c1ccccc1N: inactive
CCCCC(CC)COC(=O)c1ccc(C(=O)OCC(CC)CCCC)c(C(=O)OCC(CC)CCCC)c1 (stereo not drawn): inactive
Cc1cc(N=Nc2ccccc2C)ccc1N: inactive
CCC[CH2][Sn]([Cl])([CH2]CCC)[CH2]CCC: active
Brc1ccc(Oc2ccccc2)cc1: inactive
Nc1ccc(N=Nc2ccccc2)cc1: inactive
ClCCOCCCl: inactive
O=C(O)C1C2CCC(O2)C1C(=O)O (stereo not drawn): active
CCOc1cccc(C2(N3CCN(c4ccccc4)CC3)CCC(C)CC2)c1 (stereo not drawn): inactive
[O-][Cl+]O: inactive
O=[N+]([O-])C(Br)(CO)CO: inactive
C1=Cc2cccc3cccc1c23: inactive
CC(C)N(Cc1ccccc1)C(=O)C(C)(C)C: inactive
Nc1ccc(Cc2ccc(N)cc2)cc1: inactive
